These data points were gathered from PubChem BioAssay AID1963985.

tested on: 252836-082-R-J2-PDC tumor spheroids, viability; assay: Anticancer human tumor 252836-082-R-J2-PDC patient-derived head and neck squamous cell carcinoma cell line growth inhibition [PI3K]; conditions: second compound 10 µM; first compound 3.16 µM; active compounds read low; spheroids with HUVEC and MSC;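 note: spheroids exposed to agents for seven days before readout; percent of vehicle DMSO control viability so 100% = untreated growth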
Response field label takes 1.0 when viability, T/C is strictly below 50% and 0.0 in all other cases.

Exam item: For C=CC(=O)N1CCN(c2nc(=O)n(-c3c(C)ccnc3C(C)C)c3nc(-c4c(O)cccc4F)c(F)cc23)C(C)C1 (stereo not given) + Cc1nc(NC(=O)N2CCCC2C(N)=O)sc1-c1ccnc(C(C)(C)C(F)(F)F)c1 , is the recorded viability, T/C below the cut-off of 50%?
Marked response: 1.0

Exam item: For Cn1ncc(Cl)c1-c1cc(C(=O)NC(CN)Cc2cccc(F)c2)sc1Cl (stereo not given) + Cc1nc(NC(=O)N2CCCC2C(N)=O)sc1-c1ccnc(C(C)(C)C(F)(F)F)c1 , is the recorded viability, T/C below the cut-off of 50%?
Marked response: 1.0

Exam item: For CCCS(=O)(=O)Nc1ccc(F)c(C(=O)c2c[nH]c3ncc(-c4ccc(Cl)cc4)cc23)c1F + CC(Nc1ncnc2nc[nH]c12)c1cc2cccc(Cl)c2c(=O)n1-c1ccccc1 , is the recorded viability, T/C below the cut-off of 50%?
Marked response: 0.0

Exam item: For CC1(C)CCC(CN2CCN(c3ccc(C(=O)NS(=O)(=O)c4ccc(NCC5CCOCC5)c([N+](=O)[O-])c4)c(Oc4cnc5[nH]ccc5c4)c3)CC2)=C(c2ccc(Cl)cc2)C1 + Cc1nc(NC(=O)N2CCCC2C(N)=O)sc1-c1ccnc(C(C)(C)C(F)(F)F)c1 , is the recorded viability, T/C below the cut-off of 50%?
Marked response: 1.0

Exam item: For CC(Cn1ccc(-c2ccc(C#N)c(Cl)c2)n1)NC(=O)c1cc(C(C)O)[nH]n1 (stereo not given) + Cc1nc(NC(=O)N2CCCC2C(N)=O)sc1-c1ccnc(C(C)(C)C(F)(F)F)c1 , is the recorded viability, T/C below the cut-off of 50%?
Marked response: 1.0

Exam item: For CCCS(=O)(=O)Nc1ccc(F)c(C(=O)c2c[nH]c3ncc(-c4ccc(Cl)cc4)cc23)c1F + Cc1nc(NC(=O)N2CCCC2C(N)=O)sc1-c1ccnc(C(C)(C)C(F)(F)F)c1 , is the recorded viability, T/C below the cut-off of 50%?
Marked response: 1.0

Further cases:
Exam item: For CC(Cn1ccc(-c2ccc(C#N)c(Cl)c2)n1)NC(=O)c1cc(C(C)O)[nH]n1 (stereo not given) + CC(Nc1ncnc2nc[nH]c12)c1cc2cccc(Cl)c2c(=O)n1-c1ccccc1 , is the recorded viability, T/C below the cut-off of 50%?
Marked response: 0.0

Exam item: For C[C@@H](NC(=O)c1ncnc(N)c1Cl)c1ncc(C(=O)Nc2cc(C(F)(F)F)c(Cl)cn2)s1 + CC(Nc1ncnc2nc[nH]c12)c1cc2cccc(Cl)c2c(=O)n1-c1ccccc1 , is the recorded viability, T/C below the cut-off of 50%?
Marked response: 0.0

Exam item: For Cn1ncc(Cl)c1-c1cc(C(=O)NC(CN)Cc2cccc(F)c2)sc1Cl (stereo not given) + CC(Nc1ncnc2nc[nH]c12)c1cc2cccc(Cl)c2c(=O)n1-c1ccccc1 , is the recorded viability, T/C below the cut-off of 50%?
Marked response: 1.0
